# subject-of-test: human ether-à-go-go-related gene (hERG) potassium channel (human, UniProt Q12809)
# Sequence (Q12809 whole entry, looked up): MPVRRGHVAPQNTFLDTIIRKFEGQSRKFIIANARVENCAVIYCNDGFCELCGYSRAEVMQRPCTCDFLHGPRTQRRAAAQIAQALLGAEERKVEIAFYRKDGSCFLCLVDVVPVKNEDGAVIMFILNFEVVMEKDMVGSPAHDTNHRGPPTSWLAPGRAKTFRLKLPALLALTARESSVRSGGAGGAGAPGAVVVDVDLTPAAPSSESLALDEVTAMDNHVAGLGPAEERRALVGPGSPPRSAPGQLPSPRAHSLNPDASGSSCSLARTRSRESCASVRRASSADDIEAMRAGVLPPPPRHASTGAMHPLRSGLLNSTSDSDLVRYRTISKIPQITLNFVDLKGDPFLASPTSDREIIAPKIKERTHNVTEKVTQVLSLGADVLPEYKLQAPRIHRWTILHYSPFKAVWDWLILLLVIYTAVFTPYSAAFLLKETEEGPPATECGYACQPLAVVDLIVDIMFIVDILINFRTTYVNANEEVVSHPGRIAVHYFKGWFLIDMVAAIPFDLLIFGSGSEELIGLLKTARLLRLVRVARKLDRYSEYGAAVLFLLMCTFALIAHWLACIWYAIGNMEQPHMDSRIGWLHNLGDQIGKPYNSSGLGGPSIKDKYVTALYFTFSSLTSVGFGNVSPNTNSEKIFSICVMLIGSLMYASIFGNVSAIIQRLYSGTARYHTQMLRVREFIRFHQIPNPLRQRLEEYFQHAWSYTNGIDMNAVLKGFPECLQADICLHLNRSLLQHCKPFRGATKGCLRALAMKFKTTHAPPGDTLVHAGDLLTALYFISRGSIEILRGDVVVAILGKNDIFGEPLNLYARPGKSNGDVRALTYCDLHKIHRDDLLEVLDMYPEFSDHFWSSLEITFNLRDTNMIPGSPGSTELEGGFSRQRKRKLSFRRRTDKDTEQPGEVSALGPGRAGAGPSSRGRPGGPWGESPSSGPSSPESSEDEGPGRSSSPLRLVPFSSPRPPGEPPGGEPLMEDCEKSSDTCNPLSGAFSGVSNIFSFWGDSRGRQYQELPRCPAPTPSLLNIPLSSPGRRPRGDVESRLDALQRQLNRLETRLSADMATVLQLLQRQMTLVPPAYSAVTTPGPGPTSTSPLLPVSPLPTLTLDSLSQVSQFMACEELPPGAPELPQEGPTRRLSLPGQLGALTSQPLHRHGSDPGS
# test-details: primary screen, population patch clamp on CHO cells stably expressing hERG; higher = less effect of the substance
About 2,200 (0.71%) of roughly 310,000 compounds showed an effect of 50% or more. Effects have a minus sign here. For the sample, strong results were picked, then their nearest neighbours and some compounds at random.
parameter-measured: hERG current change (%, negative = inhibition) at 1uM (%)

- structure: "CC(C)OC(=O)CC(=O)CSc1nc2c(cc1C#N)CCC2"
  units-of-measure: "%"
  measured: 16.3
- structure: "CCN1CCc2c(sc(NC(=S)NC(=O)c3ccco3)c2C(N)=O)C1"
  units-of-measure: "%"
  measured: 15.8
- structure: "CN1CCCN(Cc2nc(-c3cccc(C(F)(F)F)c3)no2)CC1"
  units-of-measure: "%"
  measured: -15.4
- structure: "Cc1ccc(-c2noc(CN3CCCCC3)n2)cc1"
  units-of-measure: "%"
  measured: 31.5
- structure: "FC(F)(F)c1ccc(-c2noc(CN3CCCN(C4CCCCC4)CC3)n2)cc1"
  units-of-measure: "%"
  measured: -75.3
- structure: "CN1CCc2c(sc3c2c(NCc2ccco2)nc2nnnn23)C1"
  units-of-measure: "%"
  measured: -72.8
- structure: "c1coc(CNc2ncnc3sc4c(c23)CCCCC4)c1"
  units-of-measure: "%"
  measured: -16
- structure: "CSc1nc(SCC(=O)NCc2ccco2)c2c3c(sc2n1)CN(C)CC3"
  units-of-measure: "%"
  measured: 4.1
- structure: "Cc1cc(NC(=O)c2cc(-c3ccccc3)on2)n(-c2ccccc2)n1"
  units-of-measure: "%"
  measured: 7.88
- structure: "CCN1CCc2c(sc3c2c(NCc2ccco2)nc2nnnn23)C1"
  units-of-measure: "%"
  measured: -69.3

* * *

# subject-of-test: human ether-à-go-go-related gene (hERG) potassium channel (human, UniProt Q12809)
# test-details: primary screen, population patch clamp on CHO cells stably expressing hERG; higher = less effect of the substance
Screen size: about 310,000 compounds; about 2,200 (0.71%) showed an effect of 50% or more. The effect is printed as a negative number. For the sample, strong results were picked, then their nearest neighbours and some compounds at random.
parameter-measured: hERG current change (%, negative = inhibition) at 1uM (%)

- compound: "CCCn1nc2ccccc2c1P(=O)(N1CCOCC1)N1CCOCC1"
  measured: -0.888
- compound: "O=C(Cc1csc(NC(=O)Nc2cccc(Cl)c2)n1)NCc1cccnc1"
  measured: -44.2
- compound: "CNc1sc(C(=O)c2ccc(F)cc2)c(N)c1-c1nc2ccccc2s1"
  measured: 5.15
- compound: "COc1ccc(C)cc1NC(=O)C(OC(=O)CNC(=O)c1ccc(Br)cc1)c1ccccc1 (centres unmarked)"
  measured: 11.1
- compound: "O=C(CCNC(=O)c1ccccc1Cl)NCC1CCCO1 (centres unmarked)"
  measured: -9.04

* * *

# subject-of-test: human ether-à-go-go-related gene (hERG) potassium channel (human)
# test-details: primary screen, population patch clamp on CHO cells stably expressing hERG; higher = less effect of the substance
Among all 310,000 compounds or so, about 2,200 (0.71%) showed an effect of 50% or more. Effects have a minus sign here. For the sample, strong results were picked, then their nearest neighbours and some compounds at random.
Classification field: enter TRUE for hERG current change (%, negative = inhibition) at 1uM values not below 10%, FALSE for values below it.

- molecule: "COc1cc(O)oc1C=Nc1ccc(Cl)cc1"
  class-name: "TRUE"
- molecule: "CCn1c(SCC(=O)c2c(N)n(C)c(=O)n(C)c2=O)nnc1-c1ccccc1"
  class-name: "TRUE"
- molecule: "CCOc1ccc(C(=O)n2cnnc2N)cc1"
  class-name: "TRUE"
- molecule: "O=C(O)c1ccccc1-c1ccccc1C(=O)NCc1ccco1"
  class-name: "TRUE"
- molecule: "Cn1c(Cn2nnc(-c3ccccc3)n2)nnc1SCc1ccccc1Cl"
  class-name: "FALSE"
- molecule: "CCOC(=O)c1sc2nc(C)nc(NCc3cccnc3)c2c1C"
  class-name: "TRUE"
- molecule: "Cc1ccc(S(=O)(=O)N(C)c2ccc(C(=O)Nc3c(C)n(C)n(-c4ccccc4)c3=O)cc2)cc1"
  class-name: "FALSE"
- molecule: "N#Cc1c2c(c(Nc3ccccc3)n3c1nc1ccccc13)CCC2"
  class-name: "TRUE"
- molecule: "Cc1cc2c(cc1C)[n+](C)cn2CC(O)COCC1CC=CCC1.[I-] (stereo not shown)"
  class-name: "TRUE"
